# reported Excretion; entries follow
tested on: Rattus norvegicus; test: Total Cl- milliequivalents excretion in diuretic test at the dose of 75 mg/kg; type: functional, Urine
// units = m equiv; emit number, no label

O=C1NC(c2ccc([N+](=O)[O-])cc2)Nc2ncccc21 (stereo unspecified); 1.7
CC(C)c1ccc(C2NC(=O)c3cccnc3N2)cc1 (stereo unspecified); 1.4
O=C1NC(c2ccccc2)Nc2ncccc21 (stereo unspecified); 1.8
O=C1NC(c2cccnc2)Nc2nccnc21 (stereo unspecified); 1.2
O=C1NC(c2ccc(C(F)(F)F)cc2)Nc2ncccc21 (stereo unspecified); 1.3

Q) What does the data say about its Excretion? Entry: CN1C(=O)c2cccnc2NC1c1cccnc1 (stereo unspecified)
A) 1.7

====

test system: Rattus norvegicus; assay: Total Na+ milliequivalents excretion in diuretic test at the dose of 25 mg/kg; type: functional, Urine
# reported Excretion; entries follow
// units = m equiv; emit number, no label

Here are 2 compounds together with their reported answers.
O=C1NC(c2ccccc2)Nc2ncccc21 (centres undefined); 1.3
O=C1NC(c2cccnc2)Nc2ccccc21 (centres undefined); 1

Q) What does the data say about its Excretion? Entry: O=C1NC(c2cccnc2)Nc2ncccc21 (centres undefined)
A) 2.5

Q) Query Cn1cccc1C1NC(=O)c2cccnc2N1 (centres undefined) next
A) 1.5
